# Test system: Mus musculus
# Test Name: Antiinflammatory activity in mouse assessed as inhibition of xylene-induced ear edema at 50 mg/kg, ip administered 30 mins before xylene challenge relative to control
# Assay type: functional
Observed Property: inhibition in vivo at 50 mg/kg (%)
Provide only the numeric value, understood in %.

Compound	Observed Property	Test Value
O=C(N/N=C/c1cn(-c2ccc([N+](=O)[O-])cc2[N+](=O)[O-])nc1-c1cccc(Br)c1)c1ccco1	inhibition in vivo at 50 mg/kg	25.3
O=C(N/N=C/c1cn(-c2ccc([N+](=O)[O-])cc2[N+](=O)[O-])nc1-c1ccccc1F)c1ccco1	inhibition in vivo at 50 mg/kg	28
CC(C)Cc1ccc(C(C)C(=O)O)cc1 (stereo not drawn) [IBUPROFEN]	inhibition in vivo at 50 mg/kg	29.6
Cc1ccc(-c2nn(-c3ccc([N+](=O)[O-])cc3[N+](=O)[O-])cc2/C=N/NC(=N)N)c(C)c1	inhibition in vivo at 50 mg/kg	79.6
N=C(N)N/N=C/c1cn(-c2ccc([N+](=O)[O-])cc2[N+](=O)[O-])nc1-c1ccccc1	inhibition in vivo at 50 mg/kg	86.9
N=C(N)N/N=C/c1cn(-c2ccc([N+](=O)[O-])cc2[N+](=O)[O-])nc1-c1ccccc1[N+](=O)[O-]	inhibition in vivo at 50 mg/kg	58.3
Cc1ccc(-c2nn(-c3ccc([N+](=O)[O-])cc3[N+](=O)[O-])cc2/C=N/NC(=O)c2ccco2)cc1	inhibition in vivo at 50 mg/kg	36

// next entry
Need inhibition in vivo at 50 mg/kg, item `O=C(N/N=C/c1cn(-c2ccc([N+](=O)[O-])cc2[N+](=O)[O-])nc1-c1ccccc1Br)c1ccco1`
17.5

---

# System: Mus musculus
# Test Name: Antiinflammatory activity in mouse assessed as inhibition of xylene-induced ear edema at 50 mg/kg, ip administered 30 mins before xylene challenge relative to control
# Format: functional
Assign 1.0 whenever inhibition in vivo at 50 mg/kg does not fall below 70%; assign 0.0 whenever it does.

These solved cases illustrate the format of a correct answer.
Smiles Code	Assigned Category
N=C(N)N/N=C/c1cn(-c2ccc([N+](=O)[O-])cc2[N+](=O)[O-])nc1-c1cccc(Br)c1	1.0
COc1ccc(-c2nn(-c3ccc([N+](=O)[O-])cc3[N+](=O)[O-])cc2/C=N/NC(=N)N)cc1	1.0
N=C(N)N/N=C/c1cn(-c2ccccc2)nc1-c1ccc(Cl)cc1	0.0
N=C(N)N/N=C/c1cn(-c2ccc([N+](=O)[O-])cc2[N+](=O)[O-])nc1-c1ccc(Cl)cc1Cl	0.0

Kindly determine if inhibition in vivo at 50 mg/kg recorded for `N=C(N)N/N=C/c1cn(-c2ccc([N+](=O)[O-])cc2[N+](=O)[O-])nc1-c1cccc(Cl)c1` is above or exactly 70%.
1.0

Textbook exercise: given the entry `N=C(N)N/N=C/c1cn(-c2ccc([N+](=O)[O-])cc2[N+](=O)[O-])nc1-c1ccccc1Br` , state whether its inhibition in vivo at 50 mg/kg is greater than or equal to 70%.
1.0

I'd appreciate it if you could say whether `Cc1ccc(-c2nn(-c3ccc([N+](=O)[O-])cc3[N+](=O)[O-])cc2/C=N/NC(=N)N)cc1` has inhibition in vivo at 50 mg/kg at least equal to 70%.
1.0
